Origin of values: the METLIN SMRT retention time set (Domingo-Almenara et al. 2019)

For each entry below, report its RP-LC retention time value.
- assayNotes: gradient 5% acetonitrile 3 min, to 50% in 2 min, to 85% in 15 min, held 3 min, 100 µL/min
- conditionParameters: column: Zorbax Extend-C18 2.1 x 50 mm; eluents: water / acetonitrile, 0.1% formic acid
# number only, unit s dropped from output

Name the reported RP-LC retention time value associated with the molecule COc1ccc(N2C(=O)CC(N3CCC(C(N)=O)CC3)C2=O)c(OC)c1 (stereo not drawn) 578

Which RP-LC retention time value is on record for CC1CCN(C(=O)CN2c3ccc(F)cc3-c3ccccc3S2(=O)=O)CC1 ? 982

Give its RP-LC retention time value. Item: O=C(NCCc1cccs1)C1CCCN(C(=O)c2cccn2-c2cccnc2)C1 (stereo not drawn) 848

I'd like to know its RP-LC retention time. The molecule in question is COc1ccccc1N1CCN(C(=O)Cn2ccc3ccc(-c4nnc(C)o4)cc32)CC1 786

Look at this molecule and give its reported RP-LC retention time. Cc1cnc(C2CN(C3CCCCCC3)C2)n1Cc1cccnc1 608

Please report the recorded RP-LC retention time for CCOC(=O)C1CCN(C(=O)C2CCCN(c3nccc(C)n3)C2)CC1 (stereo not drawn) . 698

RP-LC retention time lookup needed for CCn1nc(C)n2cc(S(=O)(=O)NCc3ccc(C)o3)cc2c1=O , thanks. 815

Query: RP-LC retention time; subject: COc1ccc(CCNC(=O)COc2cc(=O)n3ccccc3n2)cc1 631

* * *

- assayNotes: gradient 5% acetonitrile 3 min, to 50% in 2 min, to 85% in 15 min, held 3 min, 100 µL/min
- conditionParameters: column: Zorbax Extend-C18 2.1 x 50 mm; eluents: water / acetonitrile, 0.1% formic acid
outcomeMeasure: RP-LC retention time (s)
Provide only the numeric value, understood in s.

Fill blank: measured RP-LC retention time of the compound CSc1ccc(C(C(C(=O)c2ccco2)N2CCOCC2)N2CCOCC2)cc1 (stereo not drawn) is ____. 698

State the recorded RP-LC retention time for this entry: O=C(C1CCN(c2nccnc2Sc2ccccc2)CC1)N1CCN(c2ccccn2)CC1 682

Item Cc1ccc(NC(=O)C2CCCN(c3ncnc4c3nc3n4CCCCC3)C2)c(C)c1 (stereo not drawn) has what recorded RP-LC retention time? 824

* * *

- assayNotes: gradient 5% acetonitrile 3 min, to 50% in 2 min, to 85% in 15 min, held 3 min, 100 µL/min
- conditionParameters: column: Zorbax Extend-C18 2.1 x 50 mm; eluents: water / acetonitrile, 0.1% formic acid
outcomeMeasure: RP-LC retention time (s)
Field: numeric (s). Do not append units.

Report RP-LC retention time for Cc1cc(C)n2cc(CSc3nc4cc([N+](=O)[O-])ccc4s3)nc2n1 please. 623

Form field: reported RP-LC retention time of Cc1nc(-c2cc(S(=O)(=O)NCc3ccc(F)cc3F)c(C)s2)cs1 956

Requested field: RP-LC retention time. Item: COc1ccc(S(=O)(=O)N2CCCC(C(=O)NCc3ccccn3)C2)cc1OC (stereo not given) 604

Bench note: what RP-LC retention time did Cc1ccc(-n2ccnc(NC(=O)Nc3cccc(F)c3)c2=O)cc1C show? 1070

Consider the compound shown here: O=C1[C@H]2CNC[C@H]2C(=O)N1CCc1ccccc1 What is its recorded RP-LC retention time? 604

Tell me the measured RP-LC retention time of O=C(NCCc1csc(-c2ccccc2)n1)C1CCN(C(=O)CCc2ccccc2)CC1 , please. 859

Given Cc1oc(C2CCN(S(=O)(=O)c3ccc(C(F)(F)F)cc3)CC2)nc1C(=O)N(C)C , state its recorded RP-LC retention time. 900

Query (compound): COc1cccc(NC(=O)Nc2nccn(-c3ccc(F)cc3)c2=O)c1 ; field requested: RP-LC retention time 898

// returns reported RP-LC retention time for input COc1cccc(NC(=O)CCC2CCN(S(=O)(=O)c3ccccc3)CC2)c1 936

Please look up its RP-LC retention time: O=C(Nc1ccccc1)C1CCCN(S(=O)(=O)Cc2ccccc2Cl)C1 (stereo not given) 976

Which RP-LC retention time is listed for CN(CCc1noc(-c2ccc(C(=O)N3CCOCC3)cc2)n1)C(=O)Cc1ccc(Cl)cc1 ? 757

Find the recorded RP-LC retention time belonging to CCOC(=O)c1ccccc1NC(=O)c1nc(SC)ncc1Cl and report it. 1240

Please look up its RP-LC retention time: Cc1nn(-c2nc(-c3ccc(F)cc3)cs2)c(C)c1CC(=O)Nc1cccc(C(F)(F)F)c1 1280

I have this compound here, Cc1cc(NC(=O)Cn2nc(C(=O)N3CCOCC3)c3ccccc32)ccc1Br , and I need its recorded RP-LC retention time. 862

Report RP-LC retention time for Cc1cnn(CC(=O)N2CCCn3ccnc3C2C2CCCC2)c1 (stereo not given) please. 597

Any idea what its RP-LC retention time is? The compound is COc1ccc(-c2nc(Cc3noc(-c4cccc(F)c4)n3)c(C)o2)cc1 1040

Which RP-LC retention time value belongs to CCc1nn(C)c(=O)c2cc(S(=O)(=O)NCc3ccccc3F)cn12 ? 860

Give the measured RP-LC retention time of Cc1cccc(S(=O)(=O)N2CCc3c(c(-c4nnc(-c5ccccc5F)o4)nn3C)C2)c1 . 999

So what does the record say about RP-LC retention time for CCn1ccc(C(=O)N2CCCC2c2ccc(F)cc2)n1 (stereo not given) ? 816

Sample COc1ccc(NC(=O)N(C)CCc2noc(-c3ccc(Cl)cc3)n2)c(OC)c1 — what was its RP-LC retention time? 959

Requested field: RP-LC retention time. Item: CCCn1nnc(NCc2ccc(-c3cccc(Cl)c3)o2)n1 1090

Reported RP-LC retention time, compound COC[C@@H]1CN(C(=O)c2occc2C)C[C@H]1c1nc(C2CC2)no1 : ____ 816

For the compound COc1ccc(NC(=O)N2CC(N(Cc3ccncc3)CC(C)C)C2)cc1OC , what RP-LC retention time is on record? 622

Field request: RP-LC retention time | item: CCCCCOC(=O)CSc1nnc(-c2ccc(Cl)cc2Cl)o1 1320

What does the data say about its RP-LC retention time? Entry: COCCn1ccc2nc(C)c(C(=O)Nc3ccc4c(c3)OCCO4)cc2c1=O 679
